This collection of values is drawn from PubChem BioAssay (NCI).

- System: NCI-H226 lung
- Experimental protocol: NCI-60 one-dose screen, 48 h (100 = growth as untreated, 0 = no growth, -100 = all killed)
- Measurement parameters: 10 µM unless noted
Compounds without any hit were thinned out: in the full panel of roughly 83,000, 20% have a hit.

>  <Compound>
Cc1cscc(C)c1=S

>  <growth [%]>
103

$$$$
>  <Compound>
CCOC(=O)c1c(NC(=O)CSc2n[nH]c3nc4ccccc4n23)sc(CC)c1C

>  <growth [%]>
86.7

$$$$
>  <Compound>
CC/C(Cc1ccccc1)=C(\c1ccc(OCCN2CCCCCC2)cc1)c1ccc(OC(=O)NCc2ccccc2)cc1

>  <growth [%]>
90

$$$$
>  <Compound>
CC(C)c1ccc(C(=O)Nc2sc3cc(O)ccc3c2C#N)cc1

>  <growth [%]>
58.2

$$$$
>  <Compound>
O=C1NC(=C(Cl)Cl)/C(=N/S(=O)(=O)N2CCCCC2)N1

>  <growth [%]>
89.5

$$$$
>  <Compound>
COc1ccc(-c2ccc(=O)oc2C#Cc2cc(OC)c(OC)c(OC)c2)cc1O

>  <growth [%]>
51.7

$$$$
>  <Compound>
CN1CCN(CCCOC(=O)c2c3c(n4ccccc24)C(=O)c2ncccc2C3=O)CC1

>  <growth [%]>
15.7

$$$$
>  <Compound>
COc1ccc2cc(-c3ccc(-c4ccc(C(=N)N)s4)s3)ccc2c1

>  <growth [%]>
97

$$$$
>  <Compound>
CCCCNC1=C(OCC)C(=O)c2ccccc2C1=O

>  <growth [%]>
105

$$$$
>  <Compound>
O=C1Nc2ccccc2/C1=C/c1cn(C[C@@H](O)Cn2c3ccccc3c(=O)c3ccccc32)c2ccccc12

>  <growth [%]>
63.1

$$$$
>  <Compound>
COc1ccc2[nH]cc(-c3nc(-c4cn(C)c5ccncc45)cs3)c2c1

>  <growth [%]>
106

$$$$
>  <Compound>
COc1cc2oc(-c3cccc(NC(=O)c4ccc5c(c4)OCO5)c3)cc(=O)c2c(OC)c1OC

>  <growth [%]>
65.7

$$$$
>  <Compound>
CCOC(=O)C/C(=N\Nc1cc(=O)[nH]c2ccc(Cl)cc12)C(=O)OCC

>  <growth [%]>
98.2

$$$$
>  <Compound>
O=C(c1ccc(Cl)cc1Cl)N1c2ccccc2Sc2ccccc21

>  <growth [%]>
68

$$$$
>  <Compound>
CC/C=C1/C(=O)C=C[C@@H]1C/C=C\CCCC(=O)OC

>  <growth [%]>
88.1

$$$$
>  <Compound>
CCOC(=O)Nc1nc2ccc(SCC(C)C)cc2s1

>  <growth [%]>
46.6

$$$$
>  <Compound>
CCC(CC)(N(CC(=O)O)CC(=O)O)C(CC)(CC)N(CC(=O)O)CC(=O)O

>  <growth [%]>
106

$$$$
>  <Compound>
O=C1/C(=C/c2cccc([N+](=O)[O-])c2)COc2ccc(O)cc21

>  <growth [%]>
111

$$$$
>  <Compound>
Cc1ccc2[nH]c(=O)c3c(c2c1)OC(N)=C(C#N)C31C(=O)c2cccc3cccc1c23 (configuration not stated)

>  <growth [%]>
91.1

$$$$
>  <Compound>
CCNc1nc(-c2ccc(F)cc2)c(C#N)c(=O)n1C

>  <growth [%]>
55

$$$$
>  <Compound>
CCOC(=O)c1ccc2c(c1)c1c(C)c3ccncc3c(C)c1n2C

>  <growth [%]>
-37.1

$$$$
>  <Compound>
COc1ccc(NC(=O)c2sc3nc4c(cc3c2N)CCCC4)cc1

>  <growth [%]>
50.6

$$$$
>  <Compound>
CC(=O)Nc1c(Cl)cc(Cl)c2c1Cc1cc([N+](=O)[O-])ccc1-2

>  <growth [%]>
113

$$$$
>  <Compound>
Nc1c(C(=O)Nc2cccc3ncccc23)sc2nc3c(cc12)C(=O)CCC3

>  <growth [%]>
62.2

$$$$
>  <Compound>
CN1CCN(CCCOc2ccc3ncnc(Nc4ccc(Oc5cccc(F)c5)c(Cl)c4)c3c2)CC1

>  <growth [%]>
88.4

$$$$
>  <Compound>
CC1(C)OC(=O)C(=Cc2cccc(Br)c2)C(=O)O1

>  <growth [%]>
96.2

$$$$
>  <Compound>
CCOC(=O)/C=C/c1c(C)[nH]c(=O)[nH]c1=O

>  <growth [%]>
98.6

$$$$
>  <Compound>
CCOC(=O)c1c2c(n3c1NCC3)-c1ccccc1C2=O

>  <growth [%]>
99.6

$$$$
>  <Compound>
COc1cccc(/C=C2\COc3ccc(O)cc3C2=O)c1

>  <growth [%]>
105

$$$$
>  <Compound>
CCOC(=O)c1c2c(n3ccccc13)C(=O)c1ncccc1C2=O

>  <growth [%]>
9.64

$$$$
>  <Compound>
c1ccc2cc(Cn3c[n+](Cc4ccc5ccccc5c4)c4ccccc43)ccc2c1

>  <growth [%]>
19.6

$$$$
>  <Compound>
O=C1c2cc3c(cc2-c2c1c1ccc(Cl)cc1c(=O)n2C[C@H](O)CO)OCO3

>  <growth [%]>
-77.7

$$$$
>  <Compound>
N=c1sc(Cc2cc(Cl)ccc2Cl)cn1CC(=O)c1ccccc1

>  <growth [%]>
66.3

$$$$
>  <Compound>
CN1CCN(Cc2ccc(NC(=O)c3cncc(C#Cc4cnn5ccccc45)c3)cc2C(F)(F)F)CC1

>  <growth [%]>
-11.6

$$$$
>  <Compound>
CN1C(=O)/C(=C/c2ccc(C(=O)Nc3ncc(Cc4ccc(F)cc4)s3)cc2)SC1=S

>  <growth [%]>
65.3

$$$$
>  <Compound>
Cn1cc(-c2ccc3cc(-c4ccc(CC(=O)Nc5cc(C(C)(C)C)on5)cc4)cnc3c2)cn1

>  <growth [%]>
43

$$$$
>  <Compound>
Cc1ccc(-c2cc(C(=O)N3N=C(c4ccc(N)cc4)CC3c3ccc(Cl)cc3)c3ccccc3n2)cc1 (configuration not stated)

>  <growth [%]>
72.1

$$$$
>  <Compound>
COc1cc(Nc2ncccc2NC(=O)c2cn(Cc3cccc(Oc4ccccc4)c3)nn2)cc(OC)c1

>  <growth [%]>
83

$$$$
>  <Compound>
COc1cc(C(=O)/C=C/c2ccc(N3CCN(C)CC3)cc2)cc(OC)c1OC

>  <growth [%]>
101

$$$$
>  <Compound>
O=C(CN1C(=O)NC2NC(=O)NC21)N/N=C/c1ccc(Cl)cc1Cl (configuration not stated)

>  <growth [%]>
95.6

$$$$
>  <Compound>
COc1cc(N2C(=O)[C@H](c3ccccc3)C2c2ccc(SC)cc2)cc(OC)c1OC (some centres not stated)

>  <growth [%]>
56.1

$$$$
>  <Compound>
CCOC(=O)Cn1c(=O)c2c3ccccc3n(C)c2n2nnc(-c3ccccc3)c12

>  <growth [%]>
76.9

$$$$
